Target: CCR7 (human) (UniProt P32248)
Sequence: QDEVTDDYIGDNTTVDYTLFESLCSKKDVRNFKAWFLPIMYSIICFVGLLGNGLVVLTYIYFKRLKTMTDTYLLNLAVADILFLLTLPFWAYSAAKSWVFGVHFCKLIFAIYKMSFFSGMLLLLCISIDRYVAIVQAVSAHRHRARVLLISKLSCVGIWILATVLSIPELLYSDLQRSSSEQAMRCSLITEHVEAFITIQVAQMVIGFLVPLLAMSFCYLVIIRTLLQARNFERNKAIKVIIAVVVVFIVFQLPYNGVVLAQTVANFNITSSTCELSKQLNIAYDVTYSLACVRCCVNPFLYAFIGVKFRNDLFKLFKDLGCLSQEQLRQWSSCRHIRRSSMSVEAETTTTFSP
Assay: flow cytometry, live cells
Conditions: H9 cells (CCR7 positive), Cy3-RNA; 2'-F C and 2'-F U (all pyrimidines); Flow cytometry: 2.5e5 cells in 100 uL binding buffer, 30 min, room temperature; refolding/washing buffer DPBS pH 7.0-7.4, 1 mM CaCl2, 1 mM MgCl2, 2.7 mM KCl …
pKd: −log10 of the molar value.
observationType: pKd

residueCodes: GGGAGGACGAUGCGGUGCCGCACAUUAGUCUCUGGUUGCCCACGCCAGACGACUCGCCCGA [DD9-9]
testedSystem: CCR7 (human) (UniProt P32248)
observationType: pKd
resultNumber: 6.95
--
residueCodes: GGGAGGACGAUGCGGAAUUCGUCAAAGUCGUUUAUUUCGUCUGUGCAGACGACUCGCCCGA [C-2A]
testedSystem: CCR7 (human) (UniProt P32248)
observationType: pKd
resultNumber: 7.19

Numbers sourced from paper PMC5031971.
